All figures here come from patent US20260028354A1.

Recorded DC50, one value per entry.
Biological target: ER in MCF-7 cells (Homo sapiens (Human), UniProt P03372)
Sequence (P03372 whole entry): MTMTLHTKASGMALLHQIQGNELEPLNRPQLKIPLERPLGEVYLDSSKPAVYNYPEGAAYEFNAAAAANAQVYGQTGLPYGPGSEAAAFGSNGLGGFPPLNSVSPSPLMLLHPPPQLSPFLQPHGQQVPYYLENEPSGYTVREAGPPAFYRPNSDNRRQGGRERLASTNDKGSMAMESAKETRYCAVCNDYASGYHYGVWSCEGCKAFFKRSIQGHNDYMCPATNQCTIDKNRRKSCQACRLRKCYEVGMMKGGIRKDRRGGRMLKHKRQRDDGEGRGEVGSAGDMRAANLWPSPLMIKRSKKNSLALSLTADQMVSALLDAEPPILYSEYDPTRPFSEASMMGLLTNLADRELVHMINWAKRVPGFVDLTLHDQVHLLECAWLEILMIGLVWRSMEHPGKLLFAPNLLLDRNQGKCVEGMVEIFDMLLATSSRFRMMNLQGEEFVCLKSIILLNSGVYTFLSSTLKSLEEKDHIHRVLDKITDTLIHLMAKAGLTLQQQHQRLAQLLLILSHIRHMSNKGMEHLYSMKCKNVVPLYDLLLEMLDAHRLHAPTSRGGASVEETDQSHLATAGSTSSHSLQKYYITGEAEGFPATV
Experiment: In-cell Western (ICW) ER degradation assay in MCF-7 cells
Assay type: cell-based
Details: MCF-7, ER degradation, 16 hrs treatment; read-out: MCF7 DC50

| Compound | DC50 |
| --- | --- |
| COc1cc(N2CCC3(CC2)CC(CN2CCC(c4ccc(N[C@@H]5CCC(=O)NC5=O)cc4)CC2)C3)c(F)cc1[C@@H]1c2ccc(O)cc2CC[C@@H]1c1ccccc1 (single isomer, unassigned) | < 1 nM |
| O=C1CC[C@H](N2Cc3cc4c(cc3C2=O)OCC42CCN(CC3CC4(CCN(c5ccc([C@@H]6c7ccc(O)cc7CC[C@@H]6c6ccccc6)cc5)CC4)C3)CC2)C(=O)N1 | < 1 nM |
| COc1cc(N2CCC3(CC2)CC(CN2CCC4(CC2)COc2c4cc(Cl)c4c2CN([C@H]2CCC(=O)NC2=O)C4=O)C3)c(F)cc1[C@@H]1c2ccc(O)cc2CC[C@@H]1c1ccccc1 | < 1 nM |
| COc1cc(N2CC3(CCC(CN4CCN5c6ccc7c(c6OC[C@H]5C4)CN([C@H]4CCC(=O)NC4=O)C7=O)CC3)C2)c(F)cc1[C@@H]1c2ccc(O)cc2CC[C@@H]1c1ccccc1 (single isomer, unassigned) | 1 to 10 nM |

###

Target: ER (Homo sapiens (Human), UniProt P03372)
Sequence (P03372 whole entry): as above
Assay: In-cell western blot analysis of ER for "B" compounds
Type: cell-based
Conditions: 16 hours, read-out: ICW DC50

| Compound | DC50 |
| --- | --- |
| O=C1CC[C@H](NC(=O)c2ccc3c(n2)OC[C@H]2CN(CC4COC5(CCN(c6ccc([C@@H]7c8ccc(O)cc8CC[C@@H]7c7ccccc7)cc6)CC5)C4)CCN32)C(=O)N1 (stereo partly drawn) [Compound B236] | 10 to 100 nM |
| O=C1CCC(N2Cc3cc4c(cc3C2=O)OC[C@@H]2CN(CC(=O)N3CC(Oc5ccc([C@@H]6c7ccc(O)cc7CC[C@@H]6c6ccccc6)cc5)C3)CCN42)C(=O)N1 (stereo partly drawn) [Compound B150] | < 10 nM |
| O=C1CCC(N2Cc3c(ccc4c3OCC43CCN(C(=O)CN4CC5(CC(Nc6ccc([C@@H]7c8ccc(O)cc8CC[C@@H]7c7ccccc7)cc6)C5)C4)CC3)C2=O)C(=O)N1 (stereo partly drawn) [Compound B168] | < 10 nM |

###

Target: ER in MCF-7 cells (Homo sapiens (Human))
Assay: In-cell Western (ICW) ER degradation assay in MCF-7 cells
Type: cell-based
Conditions: MCF-7, ER degradation, 16 hrs treatment; read-out: MCF7 DC50

| Molecule | DC50 |
| --- | --- |
| O=C1CC[C@H](N2Cc3cc4c(cc3C2=O)OC[C@@H]2CN(CC3CC5(CCN(c6ncc([C@H]7c8ccc(O)cc8CC[C@H]7c7ccccc7)cn6)CC5)C3)CCN42)C(=O)N1 (single isomer, unassigned) [Compound A143] | 10 to 100 nM |
| O=C1CC[C@H](N2Cc3cc4c(cc3C2=O)OC[C@H]2CN(C[C@@H]3COC5(CCN(c6ccc([C@@H]7c8ccc(O)cc8CC[C@@H]7c7ccccc7)cc6)CC5)C3)CCN42)C(=O)N1 (single isomer, unassigned) [Compound A18] | < 1 nM |
